System: NCI-H1048 cells
Assay: MTT proliferation assay, NCI-H1048;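 further: Dose-response in 96-well plates over 8 or 10 concentration points, with exposure spanning 3-4 cell doublings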
Assay type: cell-based
Conditions: 5 days compound exposure, 1:3 serial dilution starting at 10 μM
*1 amine or outer side, *2 acyl side, *3 side chain or, on linkers, in order; H or OH if unused. Where a SMILES comes first, the peptide text is derived from it. Bridges are numbered along the chain shown (N, C = ends). [ ]: non-standard residue; d: D form. The star is where a group is joined. NMePhe(2-(4-MorPh),5-Cl) = CN[C@@H](Cc1cc(Cl)ccc1-c1ccc(N2CCOCC2)cc1)C(=O)O; X3 = COCCOCCN1CCN(c2ccc(-c3ccc(Cl)cc3C[C@@H](C(=O)[*:2])N(C)[*:1])cc2)CC1; X43 = CC(C)N1CCN(c2ccc(-c3ccc(Cl)cc3C[C@@H](C(=O)[*:2])N(C)[*:1])cc2)CC1; X13 = CN([C@@H](Cc1cc(Cl)ccc1-c1cnn(CCS(C)(=O)=O)c1)C(=O)[*:2])[*:1]; X115 = CN([C@@H](Cc1cc(Cl)ccc1-c1ccc(N2CCNCC2)cc1)C(=O)[*:2])[*:1]; X82 = CN([C@@H](Cc1cc(Cl)ccc1-c1cnn(S(C)(=O)=O)c1)C(=O)[*:2])[*:1]; X6 = CN([C@@H](Cc1cc(Cl)ccc1-c1ccc(-c2cccnc2)cc1)C(=O)[*:2])[*:1]; X18 = CC(=O)N1CCC(=Cc2ccc(Cl)cc2C[C@@H](C(=O)[*:2])N(C)[*:1])CC1; X26 = CN([C@@H](Cc1cc(F)ccc1-c1cnn(C2CC2)c1)C(=O)[*:2])[*:1]; NMehhhLys(Me) = CN([C@@H](CCCCCCCN(C)[*:3])C(=O)[*:2])[*:1]; NMe(hhhLys) = CN([C@@H](CCCCCCCN[*:3])C(=O)[*:2])[*:1]; Oxane2carbonyl(2R-CF3) = O=C([C@@]1(C(F)(F)F)CCCCO1)*; Cyclobutanecarbonyl(1-CF3) = O=C(C1(C(F)(F)F)CCC1)*; cBuCO(3,3-F2-1-CF3) = O=C(C1(C(F)(F)F)CC(F)(F)C1)*; Pro(trans-4-F) = O=C(O)[C@@H]1C[C@@H](F)CN1; Gly(cPr) = N[C@H](C(=O)O)C1CC1; X77 = CC(F)(C(=O)*)C(F)(F)F
outcomeMeasure: GI50 (nM)

- compound: "CC(C)C[C@@H]1NC(=O)[C@@H](N(C)C(=O)[C@@H](NC(=O)[C@@H]2C[C@@H](F)CN2C(=O)C2(C(F)(F)F)CC(F)(F)C2)C2CC2)CCCCCCCN(C)C(=O)[C@H](Cc2cc(F)ccc2-c2cnn(C3CC3)c2)N(C)C1=O [Example 68] ({cBuCO(3,3-F2-1-CF3)}-[Pro(trans-4-F)][Gly(cPr)][NMehhhLys(Me)]L[X26]; lactam 3-C)"
  outcomeMeasure: "GI50"
  endpointValue: 10
- compound: "CC(C)C[C@@H]1NC(=O)[C@@H](N(C)C(=O)[C@@H](NC(=O)[C@@H]2C[C@@H](F)CN2C(=O)[C@@]2(C(F)(F)F)CCCCO2)C2CC2)CCCCCCCN(C)C(=O)[C@H](Cc2cc(Cl)ccc2-c2cnn(S(C)(=O)=O)c2)N(C)C1=O [Example 299] ({Oxane2carbonyl(2R-CF3)}-[Pro(trans-4-F)][Gly(cPr)][NMehhhLys(Me)]L[X82]; lactam 3-C)"
  outcomeMeasure: "GI50"
  endpointValue: 10
- compound: "CC(C)C[C@@H]1NC(=O)[C@@H](N(C)C(=O)[C@@H](NC(=O)[C@@H]2C[C@@H](F)CN2C(=O)C2(C(F)(F)F)CC(F)(F)C2)C2CC2)CCCCCCCN(C)C(=O)[C@H](Cc2cc(Cl)ccc2-c2cnn(CCS(C)(=O)=O)c2)N(C)C1=O [Example 257] ({cBuCO(3,3-F2-1-CF3)}-[Pro(trans-4-F)][Gly(cPr)][NMehhhLys(Me)]L[X13]; lactam 3-C)"
  outcomeMeasure: "GI50"
  endpointValue: 10
- compound: "CC(C)C[C@@H]1NC(=O)[C@@H](N(C)C(=O)[C@@H](NC(=O)[C@@H]2C[C@@H](F)CN2C(=O)C(C)(F)C(F)(F)F)C2CC2)CCCCCCCN(C)C(=O)[C@H](Cc2cc(Cl)ccc2-c2ccc(N3CCOCC3)cc2)N(C)C1=O (stereo partly drawn) [Example 377] (X77-[Pro(trans-4-F)][Gly(cPr)][NMehhhLys(Me)]L[NMePhe(2-(4-MorPh),5-Cl)]; lactam 3-C)"
  outcomeMeasure: "GI50"
  endpointValue: 10
- compound: "COCCOCCN1CCN(c2ccc(-c3ccc(Cl)cc3C[C@H]3C(=O)N(C)CCCCCCC[C@H](N(C)C(=O)[C@@H](NC(=O)[C@@H]4C[C@@H](F)CN4C(=O)C4(C(F)(F)F)CC(F)(F)C4)C4CC4)C(=O)N[C@@H](CC(C)C)C(=O)N3C)cc2)CC1 [Example 356] ({cBuCO(3,3-F2-1-CF3)}-[Pro(trans-4-F)][Gly(cPr)][NMehhhLys(Me)]L[X3]; lactam 3-C)"
  outcomeMeasure: "GI50"
  endpointValue: 10
- compound: "CC(C)C[C@@H]1NC(=O)[C@@H](N(C)C(=O)[C@@H](NC(=O)[C@@H]2C[C@@H](F)CN2C(=O)C2(C(F)(F)F)CCC2)C2CC2)CCCCCCCN(C)C(=O)[C@H](Cc2cc(F)ccc2-c2cnn(C3CC3)c2)N(C)C1=O [Example 186] ({Cyclobutanecarbonyl(1-CF3)}-[Pro(trans-4-F)][Gly(cPr)][NMehhhLys(Me)]L[X26]; lactam 3-C)"
  outcomeMeasure: "GI50"
  endpointValue: 10
- compound: "CC(C)C[C@@H]1NC(=O)[C@@H](N(C)C(=O)[C@@H](NC(=O)[C@@H]2C[C@@H](F)CN2C(=O)C2(C(F)(F)F)CC(F)(F)C2)C2CC2)CCCCCCCN(C)C(=O)[C@H](Cc2cc(Cl)ccc2-c2ccc(-c3cccnc3)cc2)N(C)C1=O [Example 375] ({cBuCO(3,3-F2-1-CF3)}-[Pro(trans-4-F)][Gly(cPr)][NMehhhLys(Me)]L[X6]; lactam 3-C)"
  outcomeMeasure: "GI50"
  endpointValue: 10
- compound: "CC(C)C[C@@H]1NC(=O)[C@@H](NC(=O)[C@@H](NC(=O)[C@@H]2C[C@@H](F)CN2C(=O)C2(C(F)(F)F)CC(F)(F)C2)C2CC2)CCCCCCCNC(=O)[C@H](Cc2cc(Cl)ccc2Cl)N(C)C1=O"
  outcomeMeasure: "GI50"
  endpointValue: 20
- compound: "CC(=O)N1CCC(=Cc2ccc(Cl)cc2C[C@H]2C(=O)NCCCCCCC[C@H](N(C)C(=O)[C@@H](NC(=O)[C@@H]3C[C@@H](F)CN3C(=O)C3(C(F)(F)F)CC(F)(F)C3)C3CC3)C(=O)N[C@@H](CC(C)C)C(=O)N2C)CC1 [Example 288] ({cBuCO(3,3-F2-1-CF3)}-[Pro(trans-4-F)][Gly(cPr)][NMe(hhhLys)]L[X18]; lactam 3-C)"
  outcomeMeasure: "GI50"
  endpointValue: 20
- compound: "CC(C)C[C@@H]1NC(=O)[C@@H](N(C)C(=O)[C@@H](NC(=O)[C@@H]2C[C@@H](F)CN2C(=O)C2(C(F)(F)F)CC(F)(F)C2)C2CC2)CCCCCCCN(C)C(=O)[C@H](Cc2cc(Cl)ccc2-c2ccc(N3CCN(C(C)C)CC3)cc2)N(C)C1=O [Example 347] ({cBuCO(3,3-F2-1-CF3)}-[Pro(trans-4-F)][Gly(cPr)][NMehhhLys(Me)]L[X43]; lactam 3-C)"
  outcomeMeasure: "GI50"
  endpointValue: 10
- compound: "CC(C)C[C@@H]1NC(=O)[C@@H](N(C)C(=O)[C@@H](NC(=O)[C@@H]2C[C@@H](F)CN2C(=O)C2(C(F)(F)F)CC(F)(F)C2)C2CC2)CCCCCCCN(C)C(=O)[C@H](Cc2cc(Cl)ccc2-c2ccc(N3CCNCC3)cc2)N(C)C1=O [Example 341] ({cBuCO(3,3-F2-1-CF3)}-[Pro(trans-4-F)][Gly(cPr)][NMehhhLys(Me)]L[X115]; lactam 3-C)"
  outcomeMeasure: "GI50"
  endpointValue: 10

---

Target: CyclinE1/CDK2 (Homo sapiens)
Construct: purchased Eurofins, discovery 14-475
Assay: Fluorescence Polarization (FP) competitive binding assay, Cyclin E1/Cdk2;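 further: readings taken after two-hour equilibration at room temperature in HEPES buffer with NaCl, DTT, NP-40 and BSA, IC50 fitted from eight-concentration serial dilution series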
Details: 10 nM Cyclin E1/Cdk2, 2 nM FAM probe; average of 2-3 independent experiments; read-out: Cyclin E FP IC50
pIC50: −log10 of the molar value. *1 amine or outer side, *2 acyl side, *3 side chain or, on linkers, in order; H or OH if unused. Where a SMILES comes first, the peptide text is derived from it. Bridges are numbered along the chain shown (N, C = ends). [ ]: non-standard residue; d: D form. The star is where a group is joined. X95 = CN1CCCC[C@H]1c1ccc(-c2ccc(Cl)cc2C[C@@H](C(=O)[*:2])N(C)[*:1])cc1; NMehhhLys(Me) = CN([C@@H](CCCCCCCN(C)[*:3])C(=O)[*:2])[*:1]; X112 = CN([C@@H](Cc1cc(F)ccc1-c1cnn(C)c1)C(=O)[*:2])[*:1]; X44 = Cc1nnc(-c2ccc(Cl)cc2C[C@@H](C(=O)[*:2])N(C)[*:1])o1; Cyclobutanecarbonyl(1-CF3) = O=C(C1(C(F)(F)F)CCC1)*; cBuCO(3,3-F2-1-CF3) = O=C(C1(C(F)(F)F)CC(F)(F)C1)*; Pro(trans-4-F) = O=C(O)[C@@H]1C[C@@H](F)CN1; Gly(cPr) = N[C@H](C(=O)O)C1CC1
Classification field: true (1) = pIC50 at or over 6; false (0) = pIC50 under 6.

- compound: "Cc1nnc(-c2ccc(Cl)cc2C[C@H]2C(=O)N(C)CCCCCCC[C@H](N(C)C(=O)[C@@H](NC(=O)[C@@H]3C[C@@H](F)CN3C(=O)C3(C(F)(F)F)CCC3)C3CC3)C(=O)N[C@@H](CC(C)C)C(=O)N2C)o1 [Example 163] ({Cyclobutanecarbonyl(1-CF3)}-[Pro(trans-4-F)][Gly(cPr)][NMehhhLys(Me)]L[X44]; lactam 3-C)"
  category: "true (1)"
- compound: "CC(C)C[C@@H]1NC(=O)[C@@H](N(C)C(=O)[C@@H](NC(=O)[C@@H]2C[C@@H](F)CN2C(=O)C2(C(F)(F)F)CCC2)C2CC2)CCCCCCCN(C)C(=O)[C@H](Cc2cc(F)ccc2-c2cnn(C)c2)N(C)C1=O [Example 69] ({Cyclobutanecarbonyl(1-CF3)}-[Pro(trans-4-F)][Gly(cPr)][NMehhhLys(Me)]L[X112]; lactam 3-C)"
  category: "true (1)"
- compound: "CC(C)C[C@@H]1NC(=O)[C@@H](N(C)C(=O)[C@@H](NC(=O)[C@@H]2C[C@@H](F)CN2C(=O)C2(C(F)(F)F)CCC2)C2CC2)CC=CCCCCNC(=O)[C@H](Cc2cc(Cl)cnc2OC(C)C)N(C)C1=O (single isomer, unassigned) [Example 136-P2]"
  category: "true (1)"
- compound: "CC(C)C[C@@H]1NC(=O)[C@@H](N(C)C(=O)[C@@H](NC(=O)[C@@H]2C[C@@H](F)CN2C(=O)C2(C(F)(F)F)CC(F)(F)C2)C2CC2)CCCCCCCN(C)C(=O)[C@H](Cc2cc(Cl)ccc2-c2ccc([C@@H]3CCCCN3C)cc2)N(C)C1=O [Example 417] ({cBuCO(3,3-F2-1-CF3)}-[Pro(trans-4-F)][Gly(cPr)][NMehhhLys(Me)]L[X95]; lactam 3-C)"
  category: "false (0)"
